Source listed as the supplement of paper PMC10065799.

assay-target: Fyn (UniProt P06241)
Sequence (P06241 whole entry, looked up): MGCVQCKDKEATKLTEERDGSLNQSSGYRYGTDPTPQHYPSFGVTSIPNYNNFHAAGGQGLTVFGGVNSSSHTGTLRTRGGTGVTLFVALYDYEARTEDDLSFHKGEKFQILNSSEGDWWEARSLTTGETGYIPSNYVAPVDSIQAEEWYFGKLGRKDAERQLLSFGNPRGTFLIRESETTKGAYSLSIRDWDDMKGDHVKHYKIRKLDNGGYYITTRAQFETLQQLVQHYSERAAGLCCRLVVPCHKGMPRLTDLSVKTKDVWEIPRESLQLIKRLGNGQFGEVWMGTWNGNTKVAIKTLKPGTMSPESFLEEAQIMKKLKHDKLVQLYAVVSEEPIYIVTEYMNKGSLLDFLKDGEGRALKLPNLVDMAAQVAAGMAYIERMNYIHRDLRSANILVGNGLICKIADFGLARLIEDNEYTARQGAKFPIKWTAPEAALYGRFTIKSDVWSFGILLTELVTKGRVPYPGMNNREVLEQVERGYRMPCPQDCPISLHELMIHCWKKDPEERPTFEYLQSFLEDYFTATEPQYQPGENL
assay-overview: phosphorylation enrichment, bacterial display (enrichment ratio); higher = better substrate or ligand; peptides without Tyr show the background;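 further: 11-residue human phosphosite peptides and single-mutation variants displayed on the E. coli surface, counted by deep sequencing, each peptide's frequency after selection divided by its frequency in the unselected input library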;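 further: frequency after pTyr selection over input frequency; kinase dosed for 20-30% of maximal phosphorylation in three min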
Recorded phosphorylation enrichment determines the group label, using Low = under 0.5, Medium = from 0.5 up to 0.6, High = 0.6 and over

> print(dat)
                          biosequence  class.label
 1  GEFFRYLAEVA [YWHAG_Y133_D129E_YF]       Medium
 2      SLIDMYSKVLD [OPA1_Y268_E270K]          Low
 3        MSRDVYSTDFF [NTRK2_Y702_YF]         High
 4     LKMLVYMDMSK [LRRC7_Y234_L235M]         High
 5   NLMPAYHKCIQ [CYP21A2_Y190_Y191H]       Medium
 6   CTTIHYSFMCN [TP53_Y234_N235S_YF]       Medium
 7         EILLSYLRTGF [TGM1_Y365_YF]          Low
 8           QDTSRYTVSNL [BIRC3_Y245]       Medium
 9      SGGSSYGSGGC [KRT1_Y532_G537C]          Low
10             NGLVAYKDGKL [PMM2_Y76]          Low

====

assay-target: FGFR1 (UniProt P11362)
Sequence (P11362 whole entry, looked up): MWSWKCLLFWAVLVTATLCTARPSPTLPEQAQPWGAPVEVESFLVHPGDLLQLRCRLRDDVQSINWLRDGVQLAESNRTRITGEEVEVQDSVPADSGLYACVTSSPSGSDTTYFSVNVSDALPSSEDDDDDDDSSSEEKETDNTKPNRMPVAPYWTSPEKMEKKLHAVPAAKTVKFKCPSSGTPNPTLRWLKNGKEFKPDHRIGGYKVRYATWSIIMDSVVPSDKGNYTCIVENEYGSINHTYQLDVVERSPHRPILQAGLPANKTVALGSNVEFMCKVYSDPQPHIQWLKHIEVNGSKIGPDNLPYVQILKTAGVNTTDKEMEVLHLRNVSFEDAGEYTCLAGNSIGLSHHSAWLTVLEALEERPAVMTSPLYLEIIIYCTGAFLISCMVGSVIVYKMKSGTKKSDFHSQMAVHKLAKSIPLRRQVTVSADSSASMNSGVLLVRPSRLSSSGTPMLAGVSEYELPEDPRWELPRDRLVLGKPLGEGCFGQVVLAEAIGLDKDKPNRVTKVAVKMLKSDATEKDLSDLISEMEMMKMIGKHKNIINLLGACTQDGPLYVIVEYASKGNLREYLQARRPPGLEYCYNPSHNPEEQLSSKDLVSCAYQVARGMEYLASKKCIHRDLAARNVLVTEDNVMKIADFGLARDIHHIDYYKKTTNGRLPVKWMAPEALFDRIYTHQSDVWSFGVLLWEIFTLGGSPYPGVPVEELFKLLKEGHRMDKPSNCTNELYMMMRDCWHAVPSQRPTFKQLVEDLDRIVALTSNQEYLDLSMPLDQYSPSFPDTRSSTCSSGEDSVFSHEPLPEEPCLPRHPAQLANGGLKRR
assay-overview: phosphorylation enrichment, bacterial display (enrichment ratio); higher = better substrate or ligand; peptides without Tyr show the background
readout-name: phosphorylation enrichment

> print(dat)
                            biosequence  measured.number
 1             ETCLAYREKRI [TEKT1_Y118]             0.61
 2   SLQFEYVHFGG [CDC14A_Y591_S589F_YF]             1.47
 3             LNPFIYSLRNR [OR1A1_Y288]            0.891
 4            FEEDSYVKRSQ [RET_Y905_YF]             0.41
 5              SFPSYYTSHVQ [NEFL_Y443]             1.86
 6     CTTIHYNFMGN [TP53_Y234_C238G_YF]            0.542
 7       SRNSKYNAEST [PSEN1_Y315_K311R]            0.378
 8               RRNEEYCLLDS [ITK_Y198]             1.15
 9       SFSGEYGSGGG [ZG16_Y30_G32S_YF]            0.423
10           KDFNKYVAFIE [KDM4B_Y31_YF]            0.399
11           TTKAKYKTPTF [PLD2_Y573_YF]            0.224
12                          TEGNEYVFRVA            0.647
13           FTHSDYQFSQR [PKP2_Y166_YF]            0.458
14              DDHFTYSRYPW [LY75_Y888]            0.576
15            IGEVVYQRAVM [GRIN2A_Y502]            0.434
16      WHFTFYNELRV [ACTC1_Y93_H90Y_YF]            0.542
17       CASQLCPRHKH [DCTN4_Y263_Y263C]             0.33
18  LKEIRYPPFTD [ALDH3B2_Y362_H361R_YF]             1.09
19             RHPLEYLRQYP [NARS2_Y138]             0.75
20           TGDFGYRAPGF [TNS2_Y668_YF]            0.542
21         PSARTYCFKQE [KLHDC9_Y175_YF]            0.469
22     EYQKKYSDADI [CKAP5_Y1860_K1857Q]             0.46
23          GLRYGYGVLGG [KRTAP20-2_Y15]            0.447
24        AEEKEYHAEEG [EGFR_Y869_G873E]            0.605
